B1: HEEH_KT_rd6_0007 (parent)
chain: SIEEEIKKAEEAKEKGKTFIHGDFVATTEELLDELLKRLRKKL

Variants of: B1
Assay: folding stability dG (cDNA display proteolysis); higher = more stable
Details: PBS, room temperature
OBSERVED PROPERTY: folding stability dG
Quote the value and follow it with the unit of measurement.

Input `K15R` . Output folding stability dG: 1.19 kcal/mol

Form field folding stability dG, entry `G16K` : 1.3 kcal/mol

Measured folding stability dG, `L35F` : 0.799 kcal/mol

In plain terms, `I6A` has a documented folding stability dG of 0.662 kcal/mol

Quick note, folding stability dG for `D33R` landed at 1.37 kcal/mol

Record `I2Y` , field folding stability dG: 0.989 kcal/mol

Just so you know, measured folding stability dG for `L32S` came out at 0.285 kcal/mol

The recorded folding stability dG for entry `E5T` equals 1.84 kcal/mol

So for `K37I` , the logged folding stability dG turned out to be 1.15 kcal/mol

Noted for `E11W` : its folding stability dG reads 1.2 kcal/mol

Kindly note the recorded folding stability dG for `E30R` , which is 1.19 kcal/mol

Documented folding stability dG of `I6S` : 0.742 kcal/mol

So for `K17M` , the logged folding stability dG turned out to be 1.66 kcal/mol

folding stability dG recorded for this variant, `K15M` , is 1.37 kcal/mol

// folding stability dG value for `E34W` : 1.86 kcal/mol

Measured folding stability dG of `E4L` : 1.21 kcal/mol
